test: activity coefficient (dimensionless); of the first substance listed, at infinite dilution; xn = mol fraction of the nth substance listed; details: 358.15 K; 101 kPa; Liquid; Chromatography; x1 = 0
Classification by activity coefficient follows these ranges: low (below 2), mid (2 to below 10), high (10 or more)

Where would C1CCOC1 [tetrahydrofuran] + CCCC[N+]1(C)CCOCC1.N#C[C-](C#N)C#N land among the classes by reported activity coefficient? low

Record: C#CCCC [1-pentyne] + CCCC[N+]1(C)CCOCC1.N#C[C-](C#N)C#N mid

Record: Cc1ccccc1C [1,2-dimethylbenzene] + CCCC[N+]1(C)CCOCC1.N#C[C-](C#N)C#N mid

Record: CCCCCCC [heptane] + CCCC[N+]1(C)CCOCC1.N#C[C-](C#N)C#N high

Record: C=CCCCCCCCC [1-decene] + CCCC[N+]1(C)CCOCC1.N#C[C-](C#N)C#N high

Record: CCCC=O [butanal] + CCCC[N+]1(C)CCOCC1.N#C[C-](C#N)C#N low

Record: CCCC(C)=O [pentan-2-one] + CCCC[N+]1(C)CCOCC1.N#C[C-](C#N)C#N low

Record: CCCC(=O)OC [methyl butanoate] + CCCC[N+]1(C)CCOCC1.N#C[C-](C#N)C#N mid

Record: COC(C)=O [methyl ethanoate] + CCCC[N+]1(C)CCOCC1.N#C[C-](C#N)C#N low

Record: CCC(C)(C)OC [2-methoxy-2-methylbutane] + CCCC[N+]1(C)CCOCC1.N#C[C-](C#N)C#N mid

Record: CCC(C)O (centres undefined) [butan-2-ol] + CCCC[N+]1(C)CCOCC1.N#C[C-](C#N)C#N low

Record: CC(C)OC(C)C [diisopropyl ether] + CCCC[N+]1(C)CCOCC1.N#C[C-](C#N)C#N high

Record: CCCCCCCCCC [decane] + CCCC[N+]1(C)CCOCC1.N#C[C-](C#N)C#N high

Record: CC(C)O [propan-2-ol] + CCCC[N+]1(C)CCOCC1.N#C[C-](C#N)C#N low

Record: CCOCC [diethyl ether] + CCCC[N+]1(C)CCOCC1.N#C[C-](C#N)C#N mid

Record: C1CCCC1 [cyclopentane] + CCCC[N+]1(C)CCOCC1.N#C[C-](C#N)C#N high

Record: C1CCCCCC1 [cycloheptane] + CCCC[N+]1(C)CCOCC1.N#C[C-](C#N)C#N high

Record: CC(C)CO [2-methyl-1-propanol] + CCCC[N+]1(C)CCOCC1.N#C[C-](C#N)C#N low

Record: CC1CCCCC1 [methylcyclohexane] + CCCC[N+]1(C)CCOCC1.N#C[C-](C#N)C#N high

Record: Cc1ccc(C)cc1 [1,4-dimethylbenzene] + CCCC[N+]1(C)CCOCC1.N#C[C-](C#N)C#N mid

Record: CCC(=O)OC [methyl propanoate] + CCCC[N+]1(C)CCOCC1.N#C[C-](C#N)C#N low

Record: CC(C)=O [acetone] + CCCC[N+]1(C)CCOCC1.N#C[C-](C#N)C#N low

Record: CC(C)CC(C)(C)C [2,2,4-trimethylpentane] + CCCC[N+]1(C)CCOCC1.N#C[C-](C#N)C#N high

Record: CCCOCCC [dipropyl ether] + CCCC[N+]1(C)CCOCC1.N#C[C-](C#N)C#N high

Record: C1CCCCC1 [cyclohexane] + CCCC[N+]1(C)CCOCC1.N#C[C-](C#N)C#N high

Record: CC#N [acetonitrile] + CCCC[N+]1(C)CCOCC1.N#C[C-](C#N)C#N low

Record: c1ccccc1 [benzene] + CCCC[N+]1(C)CCOCC1.N#C[C-](C#N)C#N low

Record: C1COCCO1 [1,4-dioxane] + CCCC[N+]1(C)CCOCC1.N#C[C-](C#N)C#N low
